The reported measurements were obtained from patent US20230338424A1.

Molecular target: T1, CD123 on cells (MOLM-13, MOLM14, KG-1a, RS4;11-CD123) (human, UniProt P26951 19-378)
T1 construct: whole, on cells; also called CD123 antigen; CD123/IL-3 receptor alpha
T1 sequence (P26951 19-378): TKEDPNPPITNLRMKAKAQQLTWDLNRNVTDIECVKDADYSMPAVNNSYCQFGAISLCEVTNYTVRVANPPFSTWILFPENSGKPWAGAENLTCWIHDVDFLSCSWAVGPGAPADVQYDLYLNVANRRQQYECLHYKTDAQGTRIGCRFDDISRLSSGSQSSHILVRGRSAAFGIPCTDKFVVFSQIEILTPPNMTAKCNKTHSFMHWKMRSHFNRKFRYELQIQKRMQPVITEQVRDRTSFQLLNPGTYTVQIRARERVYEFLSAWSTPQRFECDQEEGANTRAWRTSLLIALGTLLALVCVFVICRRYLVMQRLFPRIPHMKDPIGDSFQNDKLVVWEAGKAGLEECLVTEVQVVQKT
Experiment: flow cytometry, soluble scFv on CD123-positive MOLM-13 cells, anti-His-APC
Experimental: Identified binders from ELISA were tested on CD123-positive the cell line MOLM-13. The CD123-negative cell line Jeko-1 CD20KO eGFP served as negative control. For positive control staining REAL270 (alpha CD123) and REAL116 (alpha CD123) antibodies were used, respectively. Soluble scFvs were expressed as described above. […] For cell staining cell number and viability were determined at MACSQuantX. […] Signals are measured at MACSQuantX. Signals were analyzed using FlowLogic software. […]
METRIC_NAME: binding result

scFv MB42-E12 (scFv, Soluble scFv carried c-myc and His tags; also called CD123 (MB42-E12)) scFv: QVQLVQSGAEVKKPGASVKVSCKASGYTFTSYGISWVRQAPGQGLEWMGWISAYNGNTNYAQKLQGRVTMTTDTSTSTAYMELRSLRSDDTAVYYCARGAYYDFWSSYSWFDPWGQGTLVTVSSGGGGSGGGGSGGGGSSYVLTQPPSVSVAPGKTARITCGGNNIGSKSVHWYQQKPGQAPVLVVYDDSDRPSGIPERFSGSNSGNTATLTISRVEAGDEADYYCQVWDSSSDHVVFGGGTKLTVL	binds
scFv MB42-E02 (scFv, Soluble scFv carried c-myc and His tags; also called CD123 (MB42-E02)) scFv: QVQLVQSGAEVKKPGASVKVSCKASGYTFTSYGISWVRQAPGQGLEWMGWISAYNGNTNYAQKLQGRVTMTTDTSTSTAYMELRSLRSDDTAVYYCARGAYYDFWSGYSWFDPWGQGTLVTVSSGGGGSGGGGSGGGGSQSVLTQPPSVSVAPGQTARIPCGGNNIGSKGVHWYQQKSGQAPVMVVYDDSDRPSGIPERFSGSNSGNTATLTISRVEAGDEADYYCQVWDSSGDLVLFGGGTKLTVL	binds
scFv MB42-D03 (scFv, Soluble scFv carried c-myc and His tags; also called CD123 (MB42-D03)) scFv: QVQLVQSGAEVKKPGASVKVSCKASGYTFTSYGISWVRQAPGQGLEWMGWISAYNGNTNYAQKLQGRVTMTTDTSTSTAYMELRSLRSDDTAVYYCARGAYYDFWSSYSWFDPWGQGTLVTVSSGGGGSGGGGSGGGGSSYVLTQPPSVSVAPGKTARITCGGNSIGSKSVQWYQQKPGQAPVLVIYDDSDRPSGIPERFSGSNSGNTATLTISRVEAGDEADYYCQVWDSSSDVVFGGGTKLTVL	binds
scFv MB40-F08 (scFv, Soluble scFv carried c-myc and His tags; also called CD123 (MB40-F08)) scFv: QVQLVQSGAEVKKPGSSVKVSCKASGGTFSSYAISWVRQAPGQGLEWMGGIIPIFGTANYAQKFQGRVTITADESTSTAYMELSSLRSEDTAVYYCARGSGELLYASYYYYYMDVWGKGTTVTVSSGGGGSGGGGSGGGGSQSALTQPASVSGSPGQSITISCTGTSSDVGGYNYVSWYQQHPGKAPKLMIYEVSNRPSGVSNRFSGSKSGNTASLTISGLQAEDEADYYCSSYTSSSPLVFGTGTKVTVL	binds
scFv MB31-A01 (scFv, Soluble scFv carried c-myc and His tags (detection antibodies); also called CD123 (MB31-A01)) scFv: QIQLVQSGAEVKKPGSSVKVSCKASGGTFSSYAISWVRQAPGQGLEWMGGIIPIFGTANYAQKFQGRVTITADESTSTAYMELSSLRSEDTAVYYCARGSGELLYASYYYYYMDVWGKGTTVTVSSGGGGSGGGGSGGGGSQSALTQPASVSGSPGQSITISCTGTSSDVGGYNYVSWYQQHPGKAPELMIYDVSNRPSGVSNRFSGSKSGNTASLTISGLQAEDEADYYCSSYTSSSTPVVFGGGTKLTVL	binds

Parameter requested: binding result. Apply to each item below.
1. scFv MB40-H08 (scFv, Soluble scFv carried c-myc and His tags; also called CD123 (MB40-H08)) scFv: QVQLVQSGAEVKKPGSSVKVSCKASGGTFSSYAISWVRQAPGQGLEWMGGIIPIFGTANYAQKFQGRVTITADESTSTAYMELSSLRSEDTAVYYCARNEWYSYYYYYMGVWGKGTTVTVSSGGGGSGGGGSGGGGSQSALTQPASVSGSPGQSITISCTGTSSDVGGYNYVSWYQQHPGKAPKLMIYEVSNRPSGVSNRFSGSKSGNTASLTISGLQAEDEADYYCSSYTSSSTLVVFGGGTKLTVL
2. scFv MB36-A05 (scFv, Soluble scFv carried c-myc and His tags; also called CD123 (MB36-A05)) scFv: QVQLVQSGAEVKKPGSSVKVSCKASGGTFSSYAISWVRQAPGQGLEWMGGIIPIFGTANYAQKFQGRVTITADKSTSTAYMELSSLRSEDTAVYYCARGGRNSYYYYYMDVWGKGTTVTVSSGGGGSGGGGSGGGGSQSALTQPASVSGSPGQSITISCTGTSSDVGGYNYVSWYQQHPGKAPKLMIYEVSNRPSGVSNRFSGSKSGNTASLTISGLQAEDEADYYCSSYTSSSPVVFGGGTKLTVL
3. scFv MB35-E02 (scFv, Soluble scFv carried c-myc and His tags; also called CD123 (MB35-E02)) scFv: QVQLVQSGAEVKKPGSSVKVSCKASGGTFSSYAISWVRQAPGQGLEWMGGIIPIFGTANYAQKFQGRVTITADESTSTAYMELSSLRSEDTAVYYCARHGGMATMLPYGAFDIWGQGTMVTVSSGGGGSGGGGSGGGGSDIRLTQSPSSLSASVGDRVTITCRASQGISSYLNWYQQKPGKAPKLLIYAASRLQSGVPSRFSGSGSGTDFTLTISSLQPEDFATYYCQQSYSTSLTFGGGTKVEIK

["binds", "binds", "binds"]

Find the recorded binding result belonging to scFv MB44-H01 (scFv, Soluble scFv carried c-myc and His tags; also called CD123 (MB44-H01)) scFv: QVQLVQSGAEVKKPGSSVKVSCKASGGTFSSYAISWVRQAPGQGLEWMGGIIPIFGTANYAQRFQGRVTITADESTSTAYMELSSLRSEDTAVYYCARGLGTSYYYYYMDVWGKGTTVTVSSGGGGSGGGGSGGGGSQSVLTQPPSASGSPGQSVTISCTGTSSDVGGYNYVSWYQQHPGKAPKLMIYEVSNRPSGVSNRFSGSKSGNTASLTISGLQAEDEADYYCSSYTSSSTPVVFGGGTKLTVL and report it.
binds
